System: NCI-H1793
Method notes: relative viability (nuclei count vs DMSO), 5 days (fraction); higher = more cells survive
Condition parameters: first compound 0.08 µM
Measure name: relative viability
Respond with the number and no other words.

compound="Cc1cnc(-c2cnc(NCCNc3ccc(C#N)cn3)nc2-c2ccc(Cl)cc2Cl)[nH]1 + N=C(N)NC(=N)NCCc1ccccc1 [Phenformin] (partner 250 µM)" measure_name="relative viability" experimental_result=0.397
compound="O=c1[nH]c2ccccc2n1C1CCN(CCCC(c2ccc(F)cc2)c2ccc(F)cc2)CC1 [Pimozide] + O=C(CCCCCCC(=O)Nc1ccccc1)NO [Vorinostat] (partner 1 µM)" measure_name="relative viability" experimental_result=0.642

Shifting focus to the compound that follows.
The recorded relative viability for entry Cc1cnc(-c2cnc(NCCNc3ccc(C#N)cn3)nc2-c2ccc(Cl)cc2Cl)[nH]1 + CS(=O)(=O)N1CCN(Cc2cc3nc(-c4cccc5[nH]ncc45)nc(N4CCOCC4)c3s2)CC1 [Pictilisib] (partner 1 µM) equals 0.315
